Test system: Abutilon theophrasti
Experiment: Herbicidal pre-emergence action (Part 2), 1280 g/ha
Assay type: in vivo
Conditions: application rate 1280 g/ha, scored visually after about 3 weeks, Table D5
Description: Seeds of mono- and dicotyledonous weed plants were placed in plastic pots in sandy loam soil (doubly sown with in each case one species of mono- or dicotyledonous weed plants per pot) and covered with soil. […] After about 3 weeks, the effect of the preparations was scored visually in comparison with untreated controls as percentages. […]
Reported Abutilon theophrasti values are given for each entry in this list.
Field: numeric (%). Do not append units.

compound | measure-name | unit-string | reported
CC(C)CC(=O)OC1CCN(C)C(=O)N1c1cc(C(C)(C)C)no1 (stereo not drawn) [I.7-290] | Abutilon theophrasti | % | 100

Reported Abutilon theophrasti for CC(=O)OC1CCN(C)C(=O)N1c1cc(C(C)(C)C)no1 (stereo not drawn) [I.2-290] : what is it?
100

Reported Abutilon theophrasti for CCC(=O)OC1CCN(C)C(=O)N1c1cc(C(C)(C)C)no1 (stereo not drawn) [I.3-290] : what is it?
100

Reported Abutilon theophrasti for CC(=O)OC1N(c2cc(C(C)(C)C)on2)C(=O)N(C)CC1(C)C (stereo not drawn) [I.62-162] : what is it?
100

Reported Abutilon theophrasti for CC(C)C(=O)OC1CCN(C)C(=O)N1c1cc(C(C)(C)C)on1 (stereo not drawn) [I.5-162] : what is it?
100

Reported Abutilon theophrasti for CCC(=O)OC1CC2CCCN2C(=O)N1c1cc(C(C)(C)C)on1 (stereo not drawn) [I.123-162] : what is it?
100

Reported Abutilon theophrasti for CCCC(=O)OC1CC2CCCN2C(=O)N1c1cc(C(C)(C)C)on1 (stereo not drawn) [I.126-162] : what is it?
100

Reported Abutilon theophrasti for CN1CC(C)(C)C(O)N(c2cc(C(C)(C)C)on2)C1=O (stereo not drawn) [I.61-162] : what is it?
100

Reported Abutilon theophrasti for CC(C)(C)c1cc(N2C(=O)N3CCCC3CC2O)no1 (stereo not drawn) [I.121-162] : what is it?
100

Reported Abutilon theophrasti for CCCC(=O)OC1CCN(C)C(=O)N1c1cc(C(C)(C)C)no1 (stereo not drawn) [I.4-290] : what is it?
100

Reported Abutilon theophrasti for CC(C)C(=O)OC1CCN(C)C(=O)N1c1cc(C(C)(C)C)no1 (stereo not drawn) [I.5-290] : what is it?
100

Reported Abutilon theophrasti for CN1CCC(O)N(c2cc(C(C)(C)C)n(C)n2)C1=O (stereo not drawn) [I.1-315] : what is it?
100

Reported Abutilon theophrasti for CCCC(=O)OC1N(c2cc(C(C)(C)C)on2)C(=O)N(C)CC1(C)C (stereo not drawn) [I.66-162] : what is it?
100

Reported Abutilon theophrasti for CCC(=O)OC1N(c2cc(C(C)(C)C)on2)C(=O)N(C)CC1(C)C (stereo not drawn) [I.63-162] : what is it?
100

Reported Abutilon theophrasti for CC1CC(O)N(c2cc(C(C)(C)C)on2)C(=O)N1C (stereo not drawn) [I.41-162] : what is it?
100
